Assay: RAM pathway blockade in budding yeast – dse1pr::URA3 reporter, 5-FOA selection, pilot screen (AID 869);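 further: 0% = DMSO wells with no growth and 100% = 10 µM 1-NA-PP1 with full growth; RAM network block rescues cells from 5-FOA so hits raise OD615 growth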
Conditions: S. cerevisiae dse1pr::URA3 5-FOA growth, OD615, 2 d; at 10 µM; hits give high values; strain carries analog-sensitive mutant Cbk1 kinase
measured.metric: inhibition (%)
// note: answer is a bare numeric in %

compound	inhibition (%)
Cc1nc2ccc(S(=O)(=O)NC(C(=O)N3CCn4c3nc3ccccc34)C(C)C)cc2s1 (stereo not drawn)	1.02
CCCCS(=O)(=O)NC1=NCN(CCOC(=O)c2ccccc2)CN1	0.005
CCOC(=O)c1cc2c(=O)n3ccccc3nc2n(CC(C)C)c1=NC(=O)c1ccco1	0.955
Cc1c(C(=O)OC2CCCC2)[nH]c2c1C(=O)CC(c1ccco1)C2 (stereo not drawn)	1.86
O=C(CS(=O)(=O)c1cn(Cc2cccc(F)c2)c2ccccc12)N1CCOCC1	2.82
C=CCn1c(SCC(=O)N2CCN(c3ccc(F)cc3)CC2)nnc1-c1ccco1	1.71
Cc1ccccc1-c1nc(CN2CCC(C(=O)NC3CCN(Cc4ccccc4)CC3)CC2)c(C)o1	1.26
CCOC(=O)c1ccc2ncc(C(=O)OCC)c(NCCN(C)C)c2c1	2.64

Using the record for CCCCCCn1c(SCC(=O)OC)nc2c1c(=O)[nH]c(=O)n2C , report its inhibition.
0.08

Using the record for CCn1c(NC(=O)c2cccc(Cn3cc(Cl)cn3)c2)nc2ccccc21 , report its inhibition.
0.95
